system: VARTUL; conditions: E6 peptide titrated against constant GST-PDZ
readoutName: EC50 (µM)
Give the value in µM but do not write µM after it.

Supply EC50 value. Item: 20 mer peptide corresponding to the C-terminus of HPV16 E6 (PDZ ligand), biotinylated in binding assays; ends SSRTRRETQL (SEQ ID NO: 13) [HPV E6 #16]
0.94

====

molecular target: DLG2 (PDZ3) (Homo sapiens); conditions: E6 peptide titrated against constant GST-PDZ; DLG2 (3)
readoutName: pEC50
// pEC50 is dimensionless: -log10 of concentration (M)

Using known records, supply pEC50 for 20 mer peptide corresponding to the C-terminus of HPV16 E6 (PDZ ligand), biotinylated in binding assays; ends SSRTRRETQL (SEQ ID NO: 13) [HPV E6 #16]
5.80

====

biological target: PSD95 (PDZ1-3) (Homo sapiens); details: E6 peptide titrated against constant GST-PDZ; PSD95 (1-3)
Sequence (P78352 62-395): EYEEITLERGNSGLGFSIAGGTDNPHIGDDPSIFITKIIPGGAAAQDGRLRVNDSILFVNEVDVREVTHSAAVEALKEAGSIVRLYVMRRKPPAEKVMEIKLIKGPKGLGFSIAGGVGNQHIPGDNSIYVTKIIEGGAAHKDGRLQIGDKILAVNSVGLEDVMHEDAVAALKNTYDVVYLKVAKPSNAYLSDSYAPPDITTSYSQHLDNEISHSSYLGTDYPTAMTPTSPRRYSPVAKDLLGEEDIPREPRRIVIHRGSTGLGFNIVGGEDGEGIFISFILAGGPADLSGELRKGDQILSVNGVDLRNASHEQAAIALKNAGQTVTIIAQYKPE
readoutName: EC50 (µM)
Please state the figure in µM; there is no need to write the unit.

Give recorded EC50. 20 mer peptide corresponding to the C-terminus of HPV16 E6 (PDZ ligand), biotinylated in binding assays; ends SSRTRRETQL (SEQ ID NO: 13) [HPV E6 #16]
1
